// data source = paper PMC9911399

Listed here are binders together with their documented binding signal.
Target: T1, RBFOX1 RRM (Homo sapiens, UniProt Q9NWB1 109-208)
T1 sequence: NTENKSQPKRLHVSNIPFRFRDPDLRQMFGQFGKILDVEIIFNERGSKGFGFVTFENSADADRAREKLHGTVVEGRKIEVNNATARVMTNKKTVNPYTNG
Test: EMSA; HiTS-Eq, 1 nM pool, 10 min; buffer printed only for the single-RNA assays: 10 mM Tris pH 7.5, 150 mM NaCl, 3.4 mM EDTA, 0.001% NP-40, 30 C
Conditions: tags: His6 N-terminal (pET28a); label: 5' 32P
The full ranking holds about 16,000 sequences; the median of “ka relative to ugcaugu” is about 0.0091, and the highest 2% start at about 0.032. The sample holds the highest values, similar sequences and a random draw of the others, so the mix is not that of the screen.

Problem: Name the recorded binding signal for UGUGUUU (DNA:RNA) RNA: GGGAGACCGGAAUUCAGAUUGUCCUGUGUUUUUAAAUCCCGUCGUAGCCACCA DNA 1: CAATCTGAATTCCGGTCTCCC DNA 2: TGGTGGCTACGACGGGATT .
Result: 0.0186 KA relative to UGCAUGU

Problem: Please look up its binding signal: UGUUUUU (DNA:RNA) RNA: GGGAGACCGGAAUUCAGAUUGUCCUGUUUUUUUAAAUCCCGUCGUAGCCACCA DNA 1: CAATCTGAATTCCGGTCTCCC DNA 2: TGGTGGCTACGACGGGATT
Result: 0.0221 KA relative to UGCAUGU

Problem: Consider the binder UGUCGUU (DNA:RNA) RNA: GGGAGACCGGAAUUCAGAUUGUCCUGUCGUUUUAAAUCCCGUCGUAGCCACCA DNA 1: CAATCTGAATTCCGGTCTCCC DNA 2: TGGTGGCTACGACGGGATT and give its measured binding signal.
Result: 0.021 KA relative to UGCAUGU

Problem: # get_value(readout='binding signal', item= CCUGCUG (DNA:RNA) RNA: GGGAGACCGGAAUUCAGAUUGUCCCCUGCUGUUAAAUCCCGUCGUAGCCACCA DNA 1: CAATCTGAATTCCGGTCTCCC DNA 2: TGGTGGCTACGACGGGATT )
Result: 0.0192 KA relative to UGCAUGU
